- Assay Target: Adenosine receptor A2a (Homo sapiens)
- Sequence (P29274 whole entry): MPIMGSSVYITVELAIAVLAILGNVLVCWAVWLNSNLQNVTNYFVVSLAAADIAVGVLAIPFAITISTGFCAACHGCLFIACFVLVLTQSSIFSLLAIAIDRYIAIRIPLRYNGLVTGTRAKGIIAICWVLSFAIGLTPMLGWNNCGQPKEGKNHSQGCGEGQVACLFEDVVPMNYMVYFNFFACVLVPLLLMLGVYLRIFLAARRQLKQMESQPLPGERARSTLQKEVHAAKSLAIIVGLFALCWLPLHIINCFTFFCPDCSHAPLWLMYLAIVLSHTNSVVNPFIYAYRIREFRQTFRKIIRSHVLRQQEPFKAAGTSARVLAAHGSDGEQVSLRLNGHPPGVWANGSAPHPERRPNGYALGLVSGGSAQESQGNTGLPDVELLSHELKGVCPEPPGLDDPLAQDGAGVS
- Assay Method Text: A2a binding affinity assay C
- Procedure: Method (C): Measurement of A2a Binding Affinity Using an Alternative Radioligand Binding AssayMembranes used in this procedure were made by washing cell cultures twice with DPBS buffer (Dulbecco's phosphate buffered saline without calcium and magnesium, ThermoFisher Scientific, Cat. No. A1285601), and harvesting the cell cultures by mechanical scraping. […] Protein concentration was determined by the Bio-Rad method (Bio-Rad, Cat. No. 5000002). […]
pIC50: −log10 of the molar value.
Observation Type: pIC50

• Nc1nc(-c2ccccc2)c(C2CC2)c2nc(CCN3CC(F)(F)C3)nn12 [US12414952, Example 20.6] = 6.91
